Assay: Formulability through solubility in methylene chloride
Settings: room temperature, stirring
Reported Endpoint: Solubility (%)
Return type: number; implicit unit %.

Known results for molecules:
1) CCCCCCCCCCCCOC(=O)c1ccc2c(=O)c3cc(C)ccc3sc2c1 = 33
2) Cc1ccc2sc3cc(C(=O)N(CC(C)C)CC(C)C)ccc3c(=O)c2c1 = 50
3) C=CCOC(=O)c1ccc2c(=O)c3cc(C)ccc3sc2c1 = 5
4) Cc1ccc2sc3cc(C(=O)N4CCN(C)CC4)ccc3c(=O)c2c1 = 5

// next entry
Form field Solubility, entry CCCCCOC(=O)c1ccc2c(=O)c3cc(C)ccc3sc2c1 : 33

###

Test: Through-cure (thumb twist test), as sensitizer
Settings: 0.5% thioxanthone derivative, 3% Esacure A 198, 3% Esacure 1001, cyan ink, 3 μm on coated cardboard, Hg lamp 120 W/cm
# Through-cure (sensitizer) listing for each entry below
Return type: number; implicit unit m/min.

Known results for molecules:
1. CCCCCCCCCCCCOC(=O)c1ccc2c(=O)c3cc(C)ccc3sc2c1 = 53
2. C=CCOC(=O)c1ccc2c(=O)c3cc(C)ccc3sc2c1 = 60
3. Cc1ccc2sc3cc(C(=O)N(CC(C)C)CC(C)C)ccc3c(=O)c2c1 = 60

// next entry
Form field Through-cure (sensitizer), entry CC(C)c1ccc2sc3ccccc3c(=O)c2c1 [ITX, isopropyl thioxanthone, reference compound] : 60

Data origin: patent US8933142B2
